- method.description: chemical genetic growth profiling, strain panel (AID 1159580);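 further: tested at 20 µM; growth read once vehicle control cultures reached saturation at 30 °C; 1 = growth at the plate median or of vehicle wells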
- measurement.conditions: S. cerevisiae deletion strains, growth OD, locus YNL224C, strain SQS1
Out of some 5,500 compounds screened, about 2,000 (36%) were called active. Another 18% or so got no clear call; they are omitted. No stated cut-off is given here; in the data, active means normalized growth mostly below about 0.91 (no sharp cut-off); inconclusive means no clear call, values can overlap the other calls; inactive means mostly above about 0.92. This is one part of the list. Where a SMILES comes first, the peptide text is derived from it. The star is where a group is joined. Cbz = O=C(OCc1ccccc1)*
Answer with one of the outcomes given here: 1 for active, 0 for inactive

Reference set, count: 2
- COc1cc(OC)c(/C=C2/C(=O)Nc3ccccc32)c(OC)c1: 0
- O=S(=O)(c1cccc2c(I)cccc12)N1CCCNCC1: 0

Task item: Write down the call the test reported for this molecule. Item: `CC(C)CN(C)c1nc(N)c(C(=O)N=C(N)N)nc1Cl`
Reply: 0

Task item: I would be grateful if you could indicate the recorded call for `CCN(c1nc(N)c(C(=O)N=C(N)N)nc1Cl)C(C)C` .
Reply: 0

Task item: Could you kindly confirm the outcome this assay logged for `NC(N)=NC(=O)c1nc(Cl)c(N2CCCCCC2)nc1N` ?
Reply: 0

Task item: How was `O=C(O)Cc1cnc[nH]1` classified in this test?
Reply: 0

Task item: Assay outcome for COc1ccc2c(c1)CCC1C2CC[C@@]2(C)C1CC[C@@H]2NCCCCCCN1C(=O)C=CC1=O (stereo partly specified) : what was it?
Reply: 1

Task item: What outcome does the record of this test show for `NC(N)=NC(=O)c1nc(Cl)c(N)nc1N` ?
Reply: 0

Task item: // outcome(item) with item = CC(C)[C@H](NC(=O)OCc1ccccc1)C(=O)N[C@H](C=O)Cc1ccccc1 (Cbz-Val-Phe-aldehyde)
Reply: 0

Task item: Which outcome was entered for the molecule O=C(NC(Cc1ccccc1)C(=O)CCl)OCc1ccccc1 (stereo unspecified) in this test?
Reply: 1

Task item: GET /call?item= `NC(=Nc1ccccc1)NC(=O)c1nc(Cl)c(N)nc1N` returns the recorded outcome of this test.
Reply: 0

* * *

- method.description: chemical genetic growth profiling, strain panel (AID 1159580);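 further: tested at 20 µM; growth read once vehicle control cultures reached saturation at 30 °C; 1 = growth at the plate median or of vehicle wells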
- measurement.conditions: S. cerevisiae deletion strains, growth OD, locus YLR027C, strain aat2, stronger effect = lower value
The campaign covered roughly 5,500 compounds. About 2,000 (36%) were called active. Another 18% or so got no clear call; they are omitted. The list shows a part of the results.
property.label: normalized growth
# output: bare number, no unit

Consider the worked cases shown below.
• CC(C)[N+](C)(CCC(C(N)=O)(c1ccccc1)c1ccccc1)C(C)C = 0.994
• NC(N)=NC(=O)c1nc(Cl)c(N)nc1N = 1.02
• O=C(OC1Cc2c(O)cc(O)cc2OC1c1cc(=O)c(O)c2c(O)c(O)cc(C3Oc4cc(O)cc(O)c4CC3O)c2c1)c1cc(O)c(O)c(O)c1 (centres undefined) = 0.955
• CCOCN(C(=O)CCl)c1c(C)cccc1CC = 0.976
• CC(C1OC(C)(C)C(O)C1O)[C@@H]1CC[C@]2(C)C3=CCC4C(C)(C)C(=O)CC[C@]4(C)C3CC[C@@]12C (some centres undefined) = 0.973
• COc1cc(O)c2c(=O)c(O)c(-c3ccc(O)c(O)c3)oc2c1 = 0.843
• OC1CC2CCCC(C1)N2Cc1ccccc1 (centres undefined) = 1
• CC(CC(C(N)=O)(c1ccccc1)c1ccccc1)N(C)C (centres undefined) = 0.989

Task item: Assign normalized growth to the following record: CC1CCC2(OC1)OC1CC3C4CC[C@H]5C[C@@H](O)CC[C@]5(C)C4CC(=O)[C@]3(C)C1C2C (some centres undefined)
Reply: 1

Task item: Indicate the recorded normalized growth value for this molecule: `COc1cc(OC)c2c(=O)c(OC)c(-c3ccc(OC)c(OC)c3)oc2c1`
Reply: 1.01
